These entries and their values trace back to the supplement of paper PMC10567573.

B1: PLD5 (parent)
chain: KRTYWPDLDAKIREALVLRSVRVR

Variants of: B1
Assay: protein stability index of a GFP-peptide fusion (GPS, HEK-293T) (PSI 1-6); higher = more stable;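 further: lentivirally expressed fusions sorted by FACS into six bins by GFP to DsRed ratio, PSI derived from sequencing read proportions per bin multiplied by bin number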
Settings: c terminus: a fixed tail appended
Reported property: protein stability index

>>> print(df.to_string())
    variant        reported_property  value_observed
 0      Y4S  protein stability index            1.67
 1     R24I  protein stability index            2.32
 2      T3I  protein stability index            1.46
 3      W5E  protein stability index            2.79
 4      K1Y  protein stability index            1.05
 5      W5N  protein stability index            1.96
 6     A15W  protein stability index            1.62
 7     V21I  protein stability index            1.66
 8     V17M  protein stability index            2.18
 9     V17W  protein stability index             1.3
10     A10L  protein stability index            2.05
11      P6S  protein stability index            1.67
12      K1G  protein stability index            2.53
13     V23L  protein stability index            1.03
14      Y4D  protein stability index            2.75
15      T3A  protein stability index            1.78
16     K11T  protein stability index            2.42
17      D7T  protein stability index            2.39
18     E14S  protein stability index            1.13
19      L8Y  protein stability index            3.05
20      Y4P  protein stability index             1.9
21     E14H  protein stability index            1.27
22      L8M  protein stability index            2.72
23     I12R  protein stability index            2.78
24     A10T  protein stability index            2.33
25     L16D  protein stability index             2.8
26      K1M  protein stability index            1.79
27      L8H  protein stability index            2.47
28     R24M  protein stability index            1.68
29      Y4C  protein stability index            1.85
30      Y4A  protein stability index            1.17
31     L18N  protein stability index            2.45
32      P6A  protein stability index            2.54
33      Y4G  protein stability index            2.01
34     L16W  protein stability index            3.86
35      W5T  protein stability index            1.58
36     R24H  protein stability index            1.74
37      K1T  protein stability index            1.93
38      K1F  protein stability index            2.55
39     R19Q  protein stability index            2.53
40     V17E  protein stability index             1.6
41      K1E  protein stability index            2.58
